tested_system: IDO (Homo sapiens (Human), UniProt P14902)
Sequence (P14902 whole entry): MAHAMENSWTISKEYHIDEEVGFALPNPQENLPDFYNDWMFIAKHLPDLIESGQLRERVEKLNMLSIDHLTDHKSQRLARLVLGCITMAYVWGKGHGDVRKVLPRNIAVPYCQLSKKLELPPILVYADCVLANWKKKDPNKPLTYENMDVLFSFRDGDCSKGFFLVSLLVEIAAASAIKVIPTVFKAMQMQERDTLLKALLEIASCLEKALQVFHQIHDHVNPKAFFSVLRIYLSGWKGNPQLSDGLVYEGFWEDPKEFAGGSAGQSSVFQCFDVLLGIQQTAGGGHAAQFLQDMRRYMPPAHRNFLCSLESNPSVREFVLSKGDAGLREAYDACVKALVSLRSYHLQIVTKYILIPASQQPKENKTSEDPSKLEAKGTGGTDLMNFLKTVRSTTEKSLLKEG
experiment: Kynurenine assay in IFN-γ-stimulated Hela cells
Format: cell-based
conditions: 20 h, read-out: Hela Kyurenine (IC50)
property_label: IC50 (nM)

A: COc1ccc(-c2ccc(Oc3ccccc3C)c(NC(=O)Nc3ccccc3Cl)c2)cc1C(=O)O
B: COc1ccc(-c2ccc(Oc3ccccc3C(C)(C)C)c(NC(=O)Nc3ccc(OC(F)(F)F)cc3)c2)cc1C(=O)O
Ask: Lab note: check whether A or B shows the higher recorded IC50. I would appreciate it if you answered with the label of your choice.
Result: B
(B: 820 nM, A: 180 nM)

I: Cc1ccc(NC(=O)Nc2cc(-c3ccc(Cl)cc3C(=O)O)ccc2Oc2ccccc2C(C)(C)C)cc1
II: CCc1ccccc1Oc1ccc(-c2ccc(OC)c(C(=O)O)c2)cc1NC(=O)Nc1ccccc1C
Ask: Field: lower recorded IC50 (choose I or II ) API: response body contains the label of the selected item.
Result: I

1: CC(C)(C)c1ccccc1Oc1ccc(-c2ccccc2C(=O)O)cc1NC(=O)Nc1ccccc1Cl
2: Cc1ccc(NC(=O)Nc2cc(-c3ccc(C(=O)O)cc3)cnc2Oc2ccccc2)cc1
3: COc1ccc(-c2ccc(O[C@@H]3CCCC[C@H]3C)c(NC(=O)Nc3ccc(C)cc3)c2)cc1C(=O)O (relative stereo)
Ask: Ascending by IC50, please. Give me the labels in the order the question wants.
Result: 1, 3, 2
(1: 450 nM, 3: 1390 nM, 2: 87900 nM)

1: COc1ccc(-c2ccc(Oc3ccccc3C(C)C)c(NC(=O)Nc3ccccc3C)c2)cc1C(=O)O
2: COc1ccc(-c2ccc(Oc3cccc4c3OC(C)(C)C4)c(NC(=O)Nc3cccc(C)c3)c2)cc1C(=O)O
Ask: Could you check which of 1 and 2 has a smaller value for IC50? Answer by stating the label of the chosen item.
Result: 1

---

tested_system: IDO (Homo sapiens (Human))
experiment: LLE_IDO_ABS_DR (IDO assay, method not described)
property_label: IC50 (nM)

Look over these answered cases.
CC(C)(C)c1ccccc1Oc1ccc(-c2ccccc2-c2nnn[nH]2)cc1NC(=O)Nc1ccccc1 [Example 180] :: 270
CCCOc1c(Br)cc(-c2ccccc2-c2nnn[nH]2)cc1NC(=O)Nc1ccc(C)cc1 [Example 283] :: 30

I: CCCOc1c(CCCc2ccccc2)cc(-c2ccccc2C(=O)O)cc1NC(=O)Nc1ccc(C)cc1 [Example 36]
II: Cc1ccc(NC(=O)Nc2cc(-c3cccc(F)c3C(=O)O)ccc2Oc2ccccc2C(C)(C)C)cc1 [Example 171]
Ask: # returns the entry with the larger IC50; inputs I and II Identify your selection by its label.
Result: II

---

tested_system: IDO (Homo sapiens (Human))
experiment: Kynurenine assay in IFN-γ-stimulated Hela cells
Assay type: cell-based
conditions: 20 h, read-out: Hela Kyurenine (IC50)
pIC50: −log10 of the molar value.
property_label: pIC50

Some solved cases for reference:
O=C(Nc1ccccc1)Nc1cc(-c2ccccc2-c2nnn[nH]2)ccc1Oc1cccc2c1CCCC2 :: 5.96
COc1ccc(-c2ccc(Oc3ccccc3C3CC3)c(NC(=O)Nc3ccc(C)cc3)c2)cc1C(=O)O :: 6.31
COc1ccc(-c2ccc(Oc3c(C)cccc3C(C)(C)C)c(NC(=O)Nc3ccccc3Cl)c2)cc1C(=O)O :: 6.29
COc1ccc(-c2ccc(Oc3c(C)cccc3C(C)(C)C)c(NC(=O)Nc3ccccc3C)c2)cc1C(=O)O :: 6.06
CC(C)(C)c1ccccc1Oc1ccc(-c2cc(F)cc(C(=O)O)c2)cc1NC(=O)Nc1ccc(OC(F)(F)F)cc1 :: 5.79
Cc1ccccc1NC(=O)Nc1cc(-c2ccc(C(=O)O)c(Cl)c2)ccc1Oc1ccccc1C(C)(C)C :: 5.96

A: Cc1ccc(NC(=O)Nc2cc(-c3ccccc3C(=O)O)ccc2Oc2ccccc2C(C)(C)C)cc1
B: CC(C)(C)c1ccccc1Oc1ccc(-c2ccc(Cl)cc2C(=O)O)cc1NC(=O)Nc1ccccc1Cl
C: Cc1ccc(NC(=O)Nc2cc(-c3cccc(C(=O)O)c3)ccc2Oc2ccccc2)cc1
Ask: Reorder: pIC50, max to min. Form field (ranking): labels in requested order.
Result: A, B, C
